Where these numbers come from: ChEMBL document CHEMBL1130559

So I've got a bunch of compounds here, and I need their solubility values.
test: Solubility in water; assay type: physicochemical; details: read-out: S

Tell me the measured solubility of CS(=O)(=O)O.CS(=O)(=O)O.C[C@H](CNCCNC[C@@H](C)N1C(=O)c2ccc3c4c(ccc(c24)C1=O)CC3)N1C(=O)c2cccc3cc([N+](=O)[O-])cc(c23)C1=O , please.
29 mg/mL

Tell me the measured solubility of CS(=O)(=O)O.CS(=O)(=O)O.C[C@H](CNCCNC[C@@H](C)N1C(=O)c2cccc3c2c(cc2ccncc23)C1=O)N1C(=O)c2cccc3cc([N+](=O)[O-])cc(c23)C1=O , please.
65 mg/mL

Tell me the measured solubility of CS(=O)(=O)O.CS(=O)(=O)O.C[C@H](CNCCNC[C@@H](C)N1C(=O)c2cccc3cc([N+](=O)[O-])cc(c23)C1=O)N1C(=O)c2cccc3cc([N+](=O)[O-])cc(c23)C1=O [BISNAFIDE DIMESYLATE] , please.
3.5 mg/mL

Tell me the measured solubility of CS(=O)(=O)O.CS(=O)(=O)O.C[C@H](CNCCNC[C@@H](C)N1C(=O)c2cccc3c2c(cc2cccnc23)C1=O)N1C(=O)c2cccc3cc([N+](=O)[O-])cc(c23)C1=O , please.
> 35.6 mg/mL

----------
molecular target: Nucleic Acid; experiment: In vitro DNA poly-dAdT binding by ethidium bromide displacement; type: nucleic-acid assay
So I've got a bunch of compounds here, and I need their pIC50 values.
Please express pIC50 as -log10 of the molar concentration.

Tell me the measured pIC50 of CS(=O)(=O)O.CS(=O)(=O)O.C[C@H](CNCCNC[C@@H](C)N1C(=O)c2ccc3c4c(ccc(c24)C1=O)CC3)N1C(=O)c2cccc3cc([N+](=O)[O-])cc(c23)C1=O , please.
5.80

Tell me the measured pIC50 of COc1ccc2cc3c4c(cccc4c2c1)C(=O)N([C@H](C)CNCCNC[C@@H](C)N1C(=O)c2cccc4cc([N+](=O)[O-])cc(c24)C1=O)C3=O , please.
6.10

Tell me the measured pIC50 of CS(=O)(=O)O.CS(=O)(=O)O.C[C@H](CNCCNC[C@@H](C)N1C(=O)c2cccc3cc([N+](=O)[O-])cc(c23)C1=O)N1C(=O)c2cccc3cc([N+](=O)[O-])cc(c23)C1=O [BISNAFIDE DIMESYLATE] , please.
6.00

Tell me the measured pIC50 of C[C@H](CNCCNC[C@@H](C)N1C(=O)c2cccc3c2c(cc2ccc(C(F)(F)F)cc23)C1=O)N1C(=O)c2cccc3cc([N+](=O)[O-])cc(c23)C1=O , please.
5.59

----------
So I've got a bunch of molecules here, and I need their IC50 values.
biological target: Nucleic Acid; assay: In vitro DNA poly-dAdT binding by ethidium bromide displacement; format: nucleic-acid assay
# output: bare number, implied unit nM

Look up IC50 with Nucleic Acid for this molecule: C[C@H](CNCCNC[C@@H](C)N1C(=O)c2cccc3c2c(cc2cc(F)cnc23)C1=O)N1C(=O)c2cccc3cc([N+](=O)[O-])cc(c23)C1=O
1420

Look up IC50 with Nucleic Acid for this molecule: C[C@H](CNCCNC[C@@H](C)N1C(=O)c2cccc3c2c(cc2ccccc23)C1=O)N1C(=O)c2cccc3cc([N+](=O)[O-])cc(c23)C1=O
1020

Look up IC50 with Nucleic Acid for this molecule: C[C@H](CNCCNC[C@@H](C)N1C(=O)c2cc([N+](=O)[O-])cc3c2c(cc2cccnc23)C1=O)N1C(=O)c2cccc3cc([N+](=O)[O-])cc(c23)C1=O
1570

----------
So I've got a bunch of compounds here, and I need their pIC50 values.
target: Nucleic Acid; assay: In vitro DNA poly-dAdT binding by ethidium bromide displacement; assay type: nucleic-acid assay
Please express pIC50 as -log10 of the molar concentration.

Tell me the measured pIC50 of CS(=O)(=O)O.CS(=O)(=O)O.Cc1cnc2c(c1)cc1c3c(cc([N+](=O)[O-])cc32)C(=O)N([C@H](C)CNCCNC[C@@H](C)N2C(=O)c3cccc4cc([N+](=O)[O-])cc(c34)C2=O)C1=O , please.
6.21

Tell me the measured pIC50 of CS(=O)(=O)O.CS(=O)(=O)O.C[C@H](CNCCNC[C@@H](C)N1C(=O)c2cccc3c2c(cc2cccnc23)C1=O)N1C(=O)c2cccc3cc([N+](=O)[O-])cc(c23)C1=O , please.
5.97

Tell me the measured pIC50 of C[C@H](CNCCNC[C@@H](C)N1C(=O)c2cc([N+](=O)[O-])cc3c2c(cc2ccncc23)C1=O)N1C(=O)c2cccc3cc([N+](=O)[O-])cc(c23)C1=O , please.
6.06

Tell me the measured pIC50 of CS(=O)(=O)O.CS(=O)(=O)O.C[C@H](CNCCNC[C@@H](C)N1C(=O)c2cccc3c2c(cc2ccncc23)C1=O)N1C(=O)c2cccc3cc([N+](=O)[O-])cc(c23)C1=O , please.
5.92

Tell me the measured pIC50 of C[C@H](CNCCNC[C@@H](C)N1C(=O)c2cccc3c2c(cc2ccc(F)cc23)C1=O)N1C(=O)c2cccc3cc([N+](=O)[O-])cc(c23)C1=O , please.
5.82

----------
So I've got a bunch of compounds here, and I need their IC50 values.
biological target: Nucleic Acid; test: In vitro DNA poly-dGdC binding by ethidium bromide displacement; type: nucleic-acid assay
# output: bare number, implied unit nM

Tell me the measured IC50 of C[C@H](CNCCNC[C@@H](C)N1C(=O)c2cc([N+](=O)[O-])cc3c2c(cc2ccncc23)C1=O)N1C(=O)c2cccc3cc([N+](=O)[O-])cc(c23)C1=O , please.
62

Tell me the measured IC50 of COc1ccc2cc3c4c(cccc4c2c1)C(=O)N([C@H](C)CNCCNC[C@@H](C)N1C(=O)c2cccc4cc([N+](=O)[O-])cc(c24)C1=O)C3=O , please.
130

Tell me the measured IC50 of C[C@H](CNCCNC[C@@H](C)N1C(=O)c2cccc3c2c(cc2ccc(C(F)(F)F)cc23)C1=O)N1C(=O)c2cccc3cc([N+](=O)[O-])cc(c23)C1=O , please.
170

Tell me the measured IC50 of C[C@H](CNCCNC[C@@H](C)N1C(=O)c2cccc3c2c(cc2cc(F)cnc23)C1=O)N1C(=O)c2cccc3cc([N+](=O)[O-])cc(c23)C1=O , please.
59

Tell me the measured IC50 of CS(=O)(=O)O.CS(=O)(=O)O.C[C@H](CNCCNC[C@@H](C)N1C(=O)c2cccc3c2c(cc2cccnc23)C1=O)N1C(=O)c2cccc3cc([N+](=O)[O-])cc(c23)C1=O , please.
73

Tell me the measured IC50 of CS(=O)(=O)O.CS(=O)(=O)O.C[C@H](CNCCNC[C@@H](C)N1C(=O)c2cccc3c2c(cc2ccncc23)C1=O)N1C(=O)c2cccc3cc([N+](=O)[O-])cc(c23)C1=O , please.
88

Tell me the measured IC50 of C[C@H](CNCCNC[C@@H](C)N1C(=O)c2cc([N+](=O)[O-])cc3c2c(cc2cccnc23)C1=O)N1C(=O)c2cccc3cc([N+](=O)[O-])cc(c23)C1=O , please.
85

Tell me the measured IC50 of CS(=O)(=O)O.CS(=O)(=O)O.C[C@H](CNCCNC[C@@H](C)N1C(=O)c2ccc3c4c(ccc(c24)C1=O)CC3)N1C(=O)c2cccc3cc([N+](=O)[O-])cc(c23)C1=O , please.
110

Tell me the measured IC50 of CS(=O)(=O)O.CS(=O)(=O)O.C[C@H](CNCCNC[C@@H](C)N1C(=O)c2cccc3cc([N+](=O)[O-])cc(c23)C1=O)N1C(=O)c2cccc3cc([N+](=O)[O-])cc(c23)C1=O [BISNAFIDE DIMESYLATE] , please.
40

Tell me the measured IC50 of CS(=O)(=O)O.CS(=O)(=O)O.Cc1cnc2c(c1)cc1c3c(cc([N+](=O)[O-])cc32)C(=O)N([C@H](C)CNCCNC[C@@H](C)N2C(=O)c3cccc4cc([N+](=O)[O-])cc(c34)C2=O)C1=O , please.
73

Tell me the measured IC50 of C[C@H](CNCCNC[C@@H](C)N1C(=O)c2cccc3c2c(cc2ccc(F)cc23)C1=O)N1C(=O)c2cccc3cc([N+](=O)[O-])cc(c23)C1=O , please.
110

Tell me the measured IC50 of C[C@H](CNCCNC[C@@H](C)N1C(=O)c2cccc3c2c(cc2ccccc23)C1=O)N1C(=O)c2cccc3cc([N+](=O)[O-])cc(c23)C1=O , please.
970
